target: pooled human IgG
MEASURED QUANTITY: Enzyme Activity Endpoint Assay (purified): scIgG (ng/µL)
Could you give me the number in ng/µL? Just the number is fine.

PROTEIN	QUANTITATIVE RESULT
IdeS (protein) ANQEIRYSEVTPYHVTSVWTKGVTPPANFTQGEDVFHAPYVANQGWYDITKTFNGKDDLLCGAATAGNMLHWWFDQNKDQIKRYLEEHPEKQKINFNGEQMFDVKEAIDTKNHQLDSKLFEYFKEKAFPYLSTKHLGVFPDHVIDMFINGYRLSLTNHGPTPVKEGSKDPRGGIFDAVFTRGDQSKLLTSRHDFKEKNLKEISDLIKKELTEGKALGLSHTYANVRINHVINLWGADFDSNGNLKAIYVTDSDSNASIGMKKYFVGVNSAGKVAISAKEIKEDNIGAQVLGLFTLSTGQDSWNQTN	0
PRT-640 (protein) MQITSVWTKGVTPLTPEQFRYNNEDVIHAPYLAHQGWYDITKTFNGKDNLLCGAATAGNMLHWWFDQNKTEIEAYLSKHPEKQKIIFNNQELFDLKAAIDTKDSQTNSQLFNYFRDKAFPNLSARQLGVMPDLVLDMFINGYYLNVFKTQSTDVNRPYQDKDKRGGIFDAVFTRGDQTTLLTARHDLKNKGLNDISTIIKQELTEGRALALSHTYANVSISHVINLWGADFNAEGNLEAIYVTDSDADEKIGMKKYFVGINAHGHVAISAKKIEGENIGAQVLGLFTLSSGKDIWQKLSLEHHHHHH	0
PRT-306 (protein) MVTSVWTKGVTPPTDFIKGEDVFHAPYDAGQGWYDITKEFNGKDDLLCGAATAGNMLHWWFDQNKEYIEAYLKKHPEKQKIMFGDQELLDVRKAINTKGSQKNSELFNYFRDKAFPNLSARRLGVMPDLVLDMFINGYYLNVTKTQTTDVNRTYQEKDKRGGIFDAVFTRGDQSKLLTSRHDFKEKGLKEISDLIKQELTEGKALGLSHTYANVRIGHVINLWGADFDSDGNLKAIYVTDSDSNASIGMKKYGVGVNSAGKVAISAKEIKEDNIGAQVLGLFTLSTGQDIWNQTN	0

Now, please, on to the next protein.
Measured Enzyme Activity Endpoint Assay (purified): scIgG of PRT-654 (protein) MQITSVWTKGVTPLTPEQFRYNNEDVIHAPYLAHQGWYDITKAFDGKDNLLCGAATAGNMLHWWFDQNKTEIEAYLSKHPEKQKIIFNNQELFDLKAAIDTKDSQTNSQLFNYFRDKAFPNLSARQLGVMPDLVLDMFINGYYLNVFKTQSTDVNRPYQDKDKRGGIFDAVFTRGDQTTLLTARHDLKNKGLNDISTIIKQELTEGRALALSHTTGNVSYSHVINLWGADFNAEGNLEAIYVTDSDANASIGMKKYFVGINAHGHVAISAKKIEGENVGAQVLGLFTLSSGKDIWQKLSLEHHHHHH : 11
